These data points were gathered from patent US10238645B2.

Experiment: Open label pharmacokinetic study GW01-0804: serum pharmacokinetics
Settings: both, human, in vivo, T1/2, Mean, serum; Day 21
OBSERVATION TYPE: half-life (h)

CC(C)Cn1cnc2c(N)nc3ccccc3c21 [Imiquimod (R-837)]: 24.1

###

Assay: Open label pharmacokinetic study GW01-0804: serum pharmacokinetics
Details: both, human, in vivo, T1/2 EFF, Mean, serum; Day 21
OBSERVATION TYPE: half-life (h)

CC(C)Cn1cnc2c(N)nc3ccccc3c21 [Imiquimod (R-837)]: 31.3

###

Experiment: Open label pharmacokinetic study GW01-0804: serum pharmacokinetics
Conditions: both, human, in vivo, Geometric LS Mean, Test (trough serum concentration), Secondary steady-state analysis (BLQ replaced with LLOQ/2); Day 22 vs. Day 21; N 15
OBSERVATION TYPE: concentration at 22 day (trough, 24 h after the Day 21 application) (ng/mL)

CC(C)Cn1cnc2c(N)nc3ccccc3c21 [imiquimod]: 0.156
